B1: CPEB3 Ribozyme (parent)
chain: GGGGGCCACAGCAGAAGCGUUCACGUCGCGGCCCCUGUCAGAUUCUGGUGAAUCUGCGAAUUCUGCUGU

# Variants of: B1
# ASSAY_INFO: self-cleavage, relative activity (ratio to wild type); higher = more cleavage; co-transcriptional
VALUE_TYPE: self-cleavage
The answer should be a number; do not append a unit.

Identify self-cleavage associated with the variant A8C G11C 0.779

Identify self-cleavage associated with the variant U38C G68C 0.975

Values were extracted from the RNAGym collection of RNA variant scans (doi:10.7554/elife.80360).
